Kindly state inhibition for each of the entries shown.
target: Protein Mdm4 (Homo sapiens) + E3 ubiquitin-protein ligase Mdm2 (Homo sapiens) (UniProt O15151+Q00987); assay: Mdm2-MdmX complex disruptors, retested hits, confirmation, luminescence, single concentration (AID 489028); conditions: Mdm2-MdmX binding, luminescent assay; at 8 µM; active compounds read high
Sequence (O15151 whole entry, looked up): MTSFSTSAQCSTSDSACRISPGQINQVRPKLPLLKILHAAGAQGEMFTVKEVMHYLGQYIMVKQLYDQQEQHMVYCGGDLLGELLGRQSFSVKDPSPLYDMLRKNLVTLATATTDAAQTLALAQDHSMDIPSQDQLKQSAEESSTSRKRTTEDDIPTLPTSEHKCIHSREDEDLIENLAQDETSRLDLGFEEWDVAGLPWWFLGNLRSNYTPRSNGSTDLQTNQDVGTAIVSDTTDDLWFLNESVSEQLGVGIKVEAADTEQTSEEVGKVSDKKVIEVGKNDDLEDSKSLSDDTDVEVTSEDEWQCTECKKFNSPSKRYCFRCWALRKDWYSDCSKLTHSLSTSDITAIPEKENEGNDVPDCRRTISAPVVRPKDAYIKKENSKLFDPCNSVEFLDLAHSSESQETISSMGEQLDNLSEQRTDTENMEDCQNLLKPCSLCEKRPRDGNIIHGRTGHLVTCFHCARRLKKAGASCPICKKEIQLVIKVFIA
Sequence (Q00987 whole entry, looked up): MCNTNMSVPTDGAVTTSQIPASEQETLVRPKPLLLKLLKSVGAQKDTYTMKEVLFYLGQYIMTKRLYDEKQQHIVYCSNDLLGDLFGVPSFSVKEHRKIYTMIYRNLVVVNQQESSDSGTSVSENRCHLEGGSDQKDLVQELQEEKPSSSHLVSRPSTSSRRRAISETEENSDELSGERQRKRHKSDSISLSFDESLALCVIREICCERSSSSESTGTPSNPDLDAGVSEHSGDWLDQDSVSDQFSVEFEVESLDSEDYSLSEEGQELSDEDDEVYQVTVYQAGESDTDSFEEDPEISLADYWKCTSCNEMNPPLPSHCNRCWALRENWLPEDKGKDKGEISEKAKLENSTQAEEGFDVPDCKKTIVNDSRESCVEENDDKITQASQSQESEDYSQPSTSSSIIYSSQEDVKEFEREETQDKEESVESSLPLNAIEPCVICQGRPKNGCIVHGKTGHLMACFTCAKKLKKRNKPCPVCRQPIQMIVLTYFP
The whole screen tested about 10,000 compounds, of which about 5,600 (56%) were called active. The set was probably picked from earlier hits. A selection follows.
Give bare numbers, in %.

Reference set, count: 2
{"compound": "CSc1nc(-c2ccccc2)nc(C(Cl)Cl)n1", "data.value": 98.6}
{"compound": "CCc1nc(C)cn1S(=O)(=O)c1cc([N+](=O)[O-])ccc1Cl", "data.value": 50.9}

State the recorded inhibition for every item in the following list.
1. CC1CCN(C(=O)c2ccc(S(=O)(=O)Cc3cc(F)ccc3F)c([N+](=O)[O-])c2)CC1
2. COc1cccc(/C=N/NC(=O)c2[nH]nc3c2CCc2ccccc2-3)c1O
3. CC(C)n1cnc2c(Nc3cccc(Cl)c3)nc(N(CCO)CCCO)nc21
4. CCc1ccc2c(c1)C1(NN=C(c3ccccc3)S1)C(=O)N2 (stereo not given)
5. CCOC(=O)C1=C(NC(=S)NC(=O)c2ccccc2)c2ccccc2CC1(C)C
6. Cc1cc(C)c2c(-c3ccc(F)cc3)c(C#N)c(=O)n(C)c2n1
7. COc1ccc(CNC(=O)C(c2ccc(O)cc2)N(Cc2ccco2)C(=O)c2snc(C(N)=O)c2N)cc1 (stereo not given)

64
83.7
60.8
53.1
28.8
12
45

Query (compound): Cc1ccccc1C(CC(=O)c1cccs1)C(C#N)C#N (stereo not given) ; field requested: inhibition 54.7
